These entries and their values trace back to ChEMBL document CHEMBL5113542.

MEASUREMENT PROTOCOL: Half-life in Sprague-Dawley rat at 2 umol/kg, po or 1 umol/kg, iv administered as single dose by LC-MS/MS analysis
Assay type: ADME, organism-based
EXPERIMENTAL CONDITIONS: in vivo, dose 2 µmol/kg
Starred links: 1 amine or outer side, 2 acyl side, 3 side chain; linkers in the order of their positions; H or OH if unused. Positions of bridges follow the written chain, without caps; N, C: chain ends. Non-standard residues stand in square brackets, D forms with d. Residues, ends and D or L forms follow the SMILES beside them. NHCH2CH2SCH2CO = O=C(CSCCN[*:1])[*:2]; NMeF = CN[C@@H](Cc1ccccc1)C(=O)O; hCha = N[C@@H](CCC1CCCCC1)C(=O)O; X1 = CC(C)(CN[*:1])SCC(=O)[*:2]; Pen = CC(C)(S)[C@H](N)C(=O)O; αMeP = C[C@@]1(C(=O)O)CCCN1
RESULT TYPE: half-life
Number plus unit, in that order.

Illustrative cases are given below, each with its answer.
COMPOUND: COC(=O)[C@H]1NC(=O)[C@H](C)NC(=O)[C@H](Cc2ccccc2)N(C)C(=O)[C@H](CC(C)C)NC(=O)[C@H](CCC2CCCCC2)NC(=O)[C@H](CC(C)C)NC(=O)[C@H](C(C)C)NC(=O)[C@]2(C)CCCN2C(=O)[C@H](C(C)C)NC(=O)[C@H](Cc2ccccc2)NC(=O)CSC1(C)C ({CH2CO}-FV[αMeP]VL[hCha]L[NMeF]A[Pen]-OMe; thioether N-10)
half-life: 3.9 h

COMPOUND: CC(C)C[C@@H]1NC(=O)[C@H](C(C)C)NC(=O)[C@]2(C)CCCN2C(=O)[C@H](C(C)C)NC(=O)[C@H](Cc2ccccc2)NC(=O)CSC(C)(C)CNC(=O)[C@H](C)NC(=O)[C@H](Cc2ccccc2)N(C)C(=O)[C@H](CC(C)C)NC(=O)[C@H](CCC2CCCCC2)NC1=O (cyclo(A[X1]FV[αMeP]VL[hCha]L[NMeF]))
half-life: 2 h

COMPOUND: CC(C)C[C@@H]1NC(=O)[C@H](C(C)C)NC(=O)[C@@H]2CCCN2C(=O)[C@H](C(C)C)NC(=O)[C@H](Cc2ccccc2)NC(=O)CSCCNC(=O)CNC(=O)[C@H](Cc2ccccc2)N(C)C(=O)[C@H](CC(C)C)NC(=O)[C@H](Cc2c[nH]c3ccccc23)NC1=O (cyclo(FVPVLWL[NMeF]G[NHCH2CH2SCH2CO]))
half-life: 0.7 h

Recorded half-life for CC(C)C[C@@H]1NC(=O)[C@H](C(C)C)NC(=O)[C@]2(C)CCCN2C(=O)[C@H](C(C)C)NC(=O)[C@H](Cc2ccccc2)NC(=O)CSCCNC(=O)[C@H](C)NC(=O)[C@H](Cc2ccccc2)N(C)C(=O)[C@H](CC(C)C)NC(=O)[C@H](CCC2CCCCC2)NC1=O (cyclo(A[NHCH2CH2SCH2CO]FV[αMeP]VL[hCha]L[NMeF])) , please?
1.6 h
